# Target System: Rap guanine nucleotide exchange factor 3 (Homo sapiens) (UniProt O95398)
# Sequence (O95398 whole entry, looked up): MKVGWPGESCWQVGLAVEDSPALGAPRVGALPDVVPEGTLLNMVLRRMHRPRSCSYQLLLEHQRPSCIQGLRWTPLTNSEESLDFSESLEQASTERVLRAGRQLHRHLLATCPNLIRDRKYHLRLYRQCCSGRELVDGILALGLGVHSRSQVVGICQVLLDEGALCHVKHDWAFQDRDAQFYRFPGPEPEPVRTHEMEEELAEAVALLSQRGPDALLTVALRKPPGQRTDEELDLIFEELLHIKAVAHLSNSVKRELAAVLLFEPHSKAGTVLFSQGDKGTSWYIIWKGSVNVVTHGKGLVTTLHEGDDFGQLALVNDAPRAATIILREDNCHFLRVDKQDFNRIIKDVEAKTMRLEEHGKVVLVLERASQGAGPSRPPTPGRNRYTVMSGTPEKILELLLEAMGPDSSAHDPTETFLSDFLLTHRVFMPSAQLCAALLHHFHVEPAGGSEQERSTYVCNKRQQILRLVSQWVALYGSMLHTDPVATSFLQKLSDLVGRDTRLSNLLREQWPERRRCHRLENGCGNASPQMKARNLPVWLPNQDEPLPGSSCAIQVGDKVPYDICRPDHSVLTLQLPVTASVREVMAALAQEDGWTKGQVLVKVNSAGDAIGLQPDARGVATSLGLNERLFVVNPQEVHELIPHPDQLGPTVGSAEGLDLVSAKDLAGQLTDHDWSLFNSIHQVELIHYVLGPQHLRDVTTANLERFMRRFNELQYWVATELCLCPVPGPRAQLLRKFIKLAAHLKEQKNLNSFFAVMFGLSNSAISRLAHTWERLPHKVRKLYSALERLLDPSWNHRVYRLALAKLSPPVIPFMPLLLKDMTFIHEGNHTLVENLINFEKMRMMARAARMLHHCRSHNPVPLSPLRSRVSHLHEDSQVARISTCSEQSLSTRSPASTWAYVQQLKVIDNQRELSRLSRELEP
# Test: Confirmatory qHTS for antagonist of cAMP-regulated guanine nucleotide exchange factor 3 (EPAC1) (AID 1645880); also: nearly all actives have a fitted effect of over 55% in size
# Condition Description: EPAC1 Rap1B-BODIPY-GDP exchange, fluorescence
Inconclusive results are not listed. Active and inactive are the calls of the source. Calls follow the shape of the dose curve; as a rule, active = well fitted inhibition curve with a large enough effect; inconclusive = small, poorly fitted or top-dose-only effect; inactive = no such curve, though single readings can be large or run the other way.
The categories you may choose from are true (active), false (inactive)

>>> class_assignment("Cn1ccc2c(N3CCCCCCC3)cc3c(c21)C1CCC3O1 (stereo not given)")
"false"
>>> class_assignment("COc1cccc(C(=O)C(CCC#N)c2ccccc2)c1 (stereo not given)")
"false"
>>> class_assignment("CN(C)c1ccc(/C=C(\\C#N)C(=O)c2ccccc2)cc1")
"false"
>>> class_assignment("CN1CCN(C2=CC3=CC(=C(C#N)C#N)CCC3CC2)CC1 (stereo not given)")
"false"
>>> class_assignment("COC(=O)[C@H](CC(C)C)NC(=O)CC[C@H]1O[C@@H](n2ccc(=O)[nH]c2=O)[C@H](O)[C@@H]1O")
"false"

What did this assay record as the result for `CCOc1cc(-c2ccc(OC(=O)c3ccc(OC)cc3)c(OC)c2)cc(=O)c2c(C)oc(C)c12` ? true

Returns: the outcome recorded for `COc1ccc(/C=C2\SC(=S)NC2=O)cc1OS(=O)(=O)c1ccc(NC(C)=O)cc1` in this assay. true

Look up the recorded call for `O=C1ON=C(c2ccccc2)/C1=C/c1ccc(-c2ccccc2[N+](=O)[O-])o1` in this test. true

// param item: `O=C(O)c1cccc(-c2ccc(/C=c3/sc4nc5ccccc5n4c3=O)o2)c1` ; yields the recorded call false

Which outcome was assigned to `O=C(C1CC1)N1c2ccccc2Sc2ccccc21` in this test? false

----------
# Test: qHTS Counterscreen for compound interference against the NCATS DSHEA and TCM libraries (AID 1919978);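 also: compounds preincubated with 1 µM D-luciferin or buffer before detection reagent; % of control where 0% means no effect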
# Condition Description: firefly luciferase detection reagent interference, luminescence
Attribute Measured: max response (%)
Express the result in % but write the number alone.

>>> measurement("COc1ccccc1/C=C/C=O")
-3.3

Looking for the measured max response of O=C(O)CC(O)(C(=O)O)C(O)C(=O)O (stereo not drawn) , can you help? 1.8

Query (compound): CC(C)(O)[C@@H]1CC[C@](C)([C@@H]2[C@H](O)C[C@]3(C)C4C[C@@H](O[C@H]5O[C@@H](CO)[C@H](O)[C@@H](O)[C@@H]5O)C5C(C)(C)[C@H](O[C@H]6OC[C@H](O)[C@@H](O)[C@@H]6O)CC[C@]56CC46CC[C@@]23C)O1 (stereo partly drawn) ; field requested: max response 1.31

Requested read-out: max response. Entry: `O=c1cc(-c2ccc(O)c(O)c2)oc2cc(O[C@@H]3O[C@@H](CO)[C@@H](O)[C@@H](O)[C@H]3O)cc(O)c12` 0.762

Returns the measured max response for the input compound. Input: `Cc1ccc(C(C)C)cc1` -0.622

Reported max response, compound `O=c1cc(-c2ccc(O)cc2)oc2cc(O[C@@H]3O[C@H](CO)[C@@H](O)[C@H](O)[C@H]3O[C@@H]3OC[C@](O)(CO)[C@H]3O)cc(O)c12` : ____ 5.67

Would you mind telling me what max response value was observed for CC[C@H](CC[C@@H](C)[C@H]1CCC2C3CCC4C[C@@H](O)CC[C@]4(C)C3CC[C@@]21C)C(C)C (stereo partly drawn) ? -1.23

Recorded max response of `C=C1CC[C@H]2C[C@@H]1C2(C)C` , please. 0.51

----------
# Test: Cell Viability - LYMP1-002 - Assay at 40 hr (AID 994);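 also: 0% = DMSO only and full inhibition = 92 µM tetraoctylammonium bromide; nearly all actives have a fitted effect of over 60% in size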
# Condition Description: LYMP1-002 lymphoblastoid cell viability; series mostly up to 92.2 µM
Results filed as inconclusive are left out. Calls of active or inactive are those of the source. Calls follow the shape of the dose curve; as a rule, active = well fitted cell-killing curve with a large enough effect; inconclusive = small, poorly fitted or top-dose-only effect; inactive = flat fitted curve, though single readings scatter.
Could you please pick one outcome from this set? active, inactive

Worked examples, 8 compounds total:
>>> class_assignment("C=CCOC(=O)c1ccccc1C(=O)OCC=C")
"inactive"
>>> class_assignment("CC1(C)CC(N=C=O)CC(C)(CN=C=O)C1 (stereo unspecified)")
"inactive"
>>> class_assignment("c1ccccc1")
"inactive"
>>> class_assignment("c1ccc2scnc2c1")
"inactive"
>>> class_assignment("Cc1c(N=C=O)cccc1N=C=O")
"inactive"
>>> class_assignment("C/C=C\\c1ccc(OC)cc1")
"inactive"
>>> class_assignment("CN(C)C=O")
"inactive"
>>> class_assignment("COC(=O)c1ccc(C=O)cc1")
"inactive"

What was the test verdict on `Cc1ccc([N+](=O)[O-])c(C)c1` ? inactive

Tell me the assay call for `Nc1ccc(Cl)cc1Cl` please. inactive

Assay result, entry `O=[N+]([O-])c1cccc(Cl)c1Cl` — outcome? inactive

Which outcome was assigned to `CCCN(CCC)C(=O)SCC` in this test? inactive

----------
# Target System: Rap guanine nucleotide exchange factor 3 (Homo sapiens) (UniProt O95398)
# Test: Counterscreen qHTS for antagonist of cAMP-regulated guanine nucleotide exchange factor 3 (EPAC1) (AID 1645888);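 also: fluorescence loss as bound BODIPY-GDP is released from Rap1B; % of control where 0% means no effect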
# Condition Description: Rap1B-BODIPY-GDP nucleotide exchange, fluorescence; series mostly up to 154 µM
Results filed as inconclusive are left out. Active and inactive are the calls of the source. Calls follow the shape of the dose curve; as a rule, active = well fitted inhibition curve with a large enough effect; inconclusive = small, poorly fitted or top-dose-only effect; inactive = no such curve, though single readings can be large or run the other way.
Attribute Measured: activity change, negative = inhibition

>>> measurement("CN(Cc1ccccc1)c1nc(-c2ccc(F)cc2)cc(C(F)(F)F)n1")
"inactive"
>>> measurement("CS/C(Nc1cc(Cl)ccc1Cl)=C(/C#N)C(=O)c1ccco1")
"inactive"
>>> measurement("O=C1[C@H](Cc2ccccc2)NCC=CC[C@@H](c2ccc(Cl)cc2)N1Cc1ccc(Cl)cc1")
"inactive"
>>> measurement("CC(=O)OCCNc1cc(N2CCN(C)CC2)c2noc3c2c1C(=O)c1ccccc1-3")
"inactive"
>>> measurement("Cn1cc(C(=O)C(=O)N2CCCCC2)c2ccccc21")
"inactive"
>>> measurement("Nc1ccc2c(c1)C(=O)C(=O)c1ccccc1-2")
"inactive"
>>> measurement("CCOc1cc(/C=C2\\SC(=Nc3ccc(CC)cc3)NC2=O)ccc1OCC(=O)O")
"inactive"
>>> measurement("O=C1C(=Cc2ccco2)CCC1=Cc1ccco1")
"inactive"

Need activity change, negative = inhibition of `Cc1ccc2oc(=O)c(/C=C(\O)c3ccco3)nc2c1` , thanks. inactive

Reported activity change, negative = inhibition for `CCN1CCN(c2ccc(S(=O)(=O)N3CCCCC3)cc2NC(=O)c2cccc(OC(F)F)c2)CC1` : what is it? inactive

Please give the measured activity change, negative = inhibition for this compound: O=C(c1ccc(Br)cc1)C(CN1CCOCC1)c1ccccc1 (stereo not drawn) 16% [at 30.8 µM] (inactive)

Item `Cn1cc([C@]2(O)C(=O)Nc3c(F)cccc32)c2ccccc21` has what recorded activity change, negative = inhibition? inactive

Form field: reported activity change, negative = inhibition of `CN(C)c1ccc(/C=C2\C(=N)N3N=C(CC(=O)N4CCCCC4)SC3=NC2=O)cc1` inactive

----------
# Target System: Rap guanine nucleotide exchange factor 3 (Homo sapiens) (UniProt O95398)
# Test: Counterscreen qHTS for agonist of cAMP-regulated guanine nucleotide exchange factor 3 (EPAC1) (AID 1645889); also: potency is read from the fitted curve at half-maximal effect; nearly all actives have a fitted effect of over 40% in size
# Condition Description: EPAC1 Rap1B-BODIPY-GDP exchange, fluorescence; series mostly up to 154 µM
Records with an inconclusive call do not appear. Calls of active or inactive are those of the source. Calls come from the whole dose curve; as a rule, active = well fitted activation curve with a large enough effect; inconclusive = small, poorly fitted or top-dose-only effect, or another doubt; inactive = no such curve, though single readings can be large or run the other way.
Attribute Measured: Potency

Below are worked cases with known answers.
>>> measurement("CCOC(=O)c1sc(NC(=O)CN2C(=O)NC3(CC(C)CC(C)(C)C3)C2=O)cc1C (stereo not drawn)")
"89.1 µM (active)"
>>> measurement("Cn1cccc1/C=C1\\CCC/C(=C\\c2cccn2C)C1=O")
"39.8 µM (active)"
>>> measurement("COC(=O)c1c(NC(=O)c2ccc(S(=O)(=O)N(C)C3CCCCC3)cc2)sc2c1CCN(C)C2")
"89.1 µM (active)"
>>> measurement("CCc1ccc(S(=O)(=O)Nc2cc(SCC(=O)O)c(O)c3ccccc23)cc1")
"14.1 µM (active)"
>>> measurement("CCN(CC)C(=O)c1ccc(/C=C/c2c[nH]c3ccccc23)[n+](C)c1")
"15.8 µM (active)"

Potency lookup needed for `Nc1ccc2nc3c(=O)n(CCc4ccccc4)c(=O)[nH]c3nc2c1` , thanks. 70.8 µM (active)

Which Potency value belongs to `CCCNC(=O)Cn1c(=O)/c(=C/c2ccc(-c3ccc([N+](=O)[O-])cc3)o2)s/c1=C\C(=O)C(C)(C)C` ? 5.01 µM (active)

----------
# Test: Cell Viability - NIH 3T3 (AID 541);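 also: cells exposed to compound for 40 hours; plate controls were DMSO alone for no effect and tamoxifen positive control for full effect; nearly all actives have a fitted effect of over 25% in size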
# Condition Description: NIH 3T3 cell viability, qHTS
Inconclusive results are not listed. Calls of active or inactive are those of the source. The call rests on the fitted dose curve; in most records, active means well fitted cell-killing curve with a large enough effect; inconclusive means small, poorly fitted or top-dose-only effect; inactive means flat fitted curve, though single readings scatter.
Attribute Measured: outcome

Worked cases, answers included:
>>> measurement("CCCCCCCCCCCC(=O)O")
"inactive"
>>> measurement("Clc1cc(Cl)c(Cl)c(Cl)c1Cl")
"inactive"
>>> measurement("O=S(=O)(O)c1ccccc1")
"inactive"
>>> measurement("O=C(O)CC(C(=O)O)C(CC(=O)O)C(=O)O (stereo not given)")
"inactive"

Kindly review the next compound as well.
Quick check: outcome of `CCCCCCCCO` ? inactive

Cited source for all entries: PubChem BioAssay (NCATS)
